# assayedTarget: T1, hFZD8 CRD-Fc (human, UniProt Q9H461 28-158, limits assumed)
# T1 construct: domain: CRD; bought (R&D Systems); not shown: Fc part
# T1 sequence (looked up): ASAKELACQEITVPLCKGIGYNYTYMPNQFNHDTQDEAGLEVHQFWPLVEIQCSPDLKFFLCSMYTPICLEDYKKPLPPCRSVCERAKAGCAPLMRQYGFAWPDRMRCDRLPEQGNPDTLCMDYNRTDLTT
# experimentNotes: spot phage ELISA
endpointLabel: signal:noise ratio

>  <binder>
FCENPYIICW [SEQ ID NO 26]

>  <assayValue>
0.8

$$$$
>  <binder>
FLPDQHSHLFLPWGEP [SEQ ID NO 20]

>  <assayValue>
1

$$$$
>  <binder>
YEHLHDLMDLIRPW (also called Fz7-07) [SEQ ID NO 1]

>  <assayValue>
1.6

$$$$
>  <binder>
GDFWPGSLLWEILV [SEQ ID NO 17]

>  <assayValue>
1

$$$$
>  <binder>
NAFWRDQCLEWFIICL [SEQ ID NO 24]

>  <assayValue>
1.1

$$$$
>  <binder>
VFFYHSLFFIKLILDP [SEQ ID NO 28]

>  <assayValue>
1.3

$$$$
>  <binder>
SCQMWSNLRVLFLSYW [SEQ ID NO 21]

>  <assayValue>
0.7

$$$$
>  <binder>
VFVPFSELTSLC [SEQ ID NO 22]

>  <assayValue>
1

$$$$
